molecular target: BRD4 (BD1) (Homo sapiens); construct: with relatively long constructs also being possible, preferably amino acids 44-168; test: Binding assay BRD4/acetylated peptide H4 (TR-FRET protein-protein interaction assay)
pIC50: −log10 of the molar value.
measure: pIC50

As a guide, the following entries are already answered.
>>> measurement("CNC(=O)N1N=C(c2ccc(N3CCC(C)(O)CC3)cc2)c2cc(OC)c(OC)cc2CC1C (racemic) [Example 188]")
7.30
>>> measurement("CNC(=O)N1N=C(c2ccc(-n3ncnc3C)cc2)c2cc(OC)c(OC)cc2CC1C (racemic) [Example 153]")
6.96

I: CNC(=O)N1N=C(c2ccc(N3CCCS3(=O)=O)cc2)c2cc(OC)c(OC)cc2CC1C (racemic) [Example 244]
II: CNC(=O)N1N=C(c2ccc(N3CCOC3=O)cc2)c2cc(OC)c(OC)cc2CC1C (racemic) [Example 34]
Pick one: I or II . Which has the bigger pIC50 number? Respond with the label that goes with your answer.
I
(I: 7.52, II: 7.30)

I: CNC(=O)N1N=C(c2ccc(-c3cn(C)nn3)cc2)c2cc(OC)c(OC)cc2CC1C (racemic) [Example 45]
II: CNC(=O)N1N=C(c2ccc(-c3ccc(C(F)(F)F)cc3)cc2)c2cc(OC)c(OC)cc2CC1C (racemic) [Example 86]
III: CCC(=O)N1N=C(c2ccc(N3CCN(C)CC3)cc2)c2cc(OC)c(OC)cc2CC1C (racemic) [Example 255]
Order each entry by recorded pIC50, climbing from the minimum. In plain terms: list the labels in the order you were asked to.
II, III, I
(II: 6.41, III: 6.62, I: 7.40)
